# System: T1, human MSLN full-length protein (NCBI: AAH09272.1) expressed on HEK293T-hMSLN-B8 cells (human, UniProt Q13421 296-598)
# T1 construct: Whole encoded precursor
# T1 sequence (Q13421 other isoform, or with tags, fused parts or gaps limits assumed): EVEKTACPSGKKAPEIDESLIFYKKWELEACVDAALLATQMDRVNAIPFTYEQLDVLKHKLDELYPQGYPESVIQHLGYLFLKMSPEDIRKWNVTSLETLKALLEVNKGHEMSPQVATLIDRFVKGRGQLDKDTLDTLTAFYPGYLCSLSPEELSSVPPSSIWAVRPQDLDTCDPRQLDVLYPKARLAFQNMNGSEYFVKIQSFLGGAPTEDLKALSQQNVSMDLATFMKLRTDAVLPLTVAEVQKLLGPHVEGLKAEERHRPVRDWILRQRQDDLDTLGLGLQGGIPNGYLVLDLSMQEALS
# Assay: FACS on HEK293T-hMSLN-B8 cells
Recorded Endpoint: Maximum mean fluorescence intensity
Please give the numeric answer without any surrounding text.

# Binder, Maximum mean fluorescence intensity
data = [
    ("S009-F4-94.15 (antibody, human IgG1, kappa, V domains shown, human-murine chimeric antibody, human IgG1/kappa constant regions) VH: QVQLHQPGAELVRPGSSVKLSCKASGYTFTSYWVHWVQQRPRQGLEWIGNIDPSDSEIHYNQKFKDKATLTVDKSSSTAYIHLSRLTSEDSAIYYCVRGGVPWFAYWGQGTLVTVSA VL: QIVLTQSPAIMSASPGEKVTLTCSASSSVSSTYLYWFQQKPGSSPKVWIYSTSNLASGVPARFSGSGSGTSYSLTISSMEAEDAASYFCHQWISYPYTFGGGTKLEIKR", 113000),
]

Note: attention shifts to another entry.
Query: State the recorded Maximum mean fluorescence intensity for this entry: S009-F6-76.1 (antibody, human IgG1, kappa, V domains shown, human-murine chimeric antibody, human IgG1/kappa constant regions) VH: QVQLQQSGPELVKPGASVKISCKASGYTFTDYYINWVKQRPGQGLEWIGWIFPGRGSTFYYEKFKGKATLTVDKSSSTAYMLLSSLTSEDSAVYFCARRGDSAGYEDLDYWGQGTSVTVSS VL: NIVMTQSPKFMSMSVGERVTLSCKASENVVTYVSWYQQKPKQSPKLLIYGASKRYTGVPDRFTGSGSATDFTLTISSVQAEDLGDYHCGQSYSYPYTFGGGTKLEIKR
Result: 231000
